Ref: the SangsterLogP compilation

quantity: logP
Lab note: jot the number down without any unit.

{"compound": "C#CCCCCC", "readout-value": 3.32}
{"compound": "CCOC=O", "readout-value": 0.27}
{"compound": "C=CCCC", "readout-value": 2.8}
{"compound": "CCCCI", "readout-value": 3.08}
{"compound": "CCCCCCCCCCCCCC", "readout-value": 8}
{"compound": "CCCCCCCl", "readout-value": 3.66}
{"compound": "CCCC(=O)OCC", "readout-value": 1.71}
{"compound": "ClCCCCCl", "readout-value": 2.24}

Specify logP for CCCCCCCCC and stop.
5.65

Query logP for C#CCCCCCC
3.92

Give logP for the following compound: CCCCOC(=O)CCCC
3.36
